The origin of these recorded values is patent US4214093A.

The entries below are paired with their reported Survived / Tested.
Test system: thrombin
Assay: Inhibitory activity on thrombus formation: protection from lethal thrombin injection in mice
Assay type: in vivo, mice (ddY strain)
Conditions: 10 mg/kg i.p., 10 minutes before thrombin 300 NIH units/kg i.v.; No. 91 in 2.5% gum arabic
EXPERIMENTAL ENDPOINT: Survived / Tested

COc1ccc(OC(=O)C2CCCc3ccc(NC(=N)N)cc32)cc1.Cl (stereo not drawn) [Compound 138] ... 2/10
CCOC(=O)c1ccc(OC(=O)C2CCCc3ccc(NC(=N)N)cc32)cc1 (stereo not drawn) [Compound 148] ... 3/10
COC(=O)c1ccc(OC(=O)C2CCCc3ccc(N)cc32)cc1 (stereo not drawn) [Compound 91] ... 0/10
Cl.N=C(N)Nc1ccc2c(c1)C(C(=O)Oc1ccccc1)CCC2 (stereo not drawn) [Compound 134] ... 1/10
N=C(N)c1ccc(CC(=O)C(=O)O)cc1 [APPA-Na, sodium p-amidinophenyl pyruvate, reference compound] ... 3/9
COC(=O)c1ccc(OC(=O)C2CCCc3c(NC(=N)N)cccc32)cc1 (stereo not drawn) [Compound 118] ... 3/10
